method: pH dependent solubility of Compound A
Type: physicochemical
assay.context: aqueous buffer; pH 7, near neutral pH of the small intestine
From the text: The pH dependent solubility and potential rapid release in the stomach of Compound A causes difficulties in the formulation or oral dosage forms. It is desirable that release is controlled to take place over a period of hours. Such a formulation would require dosing only once a day, and this is likely to improve patient compliance.
reported.endpoint: solubility

molecule="CN(CCOc1ccc(CC2SC(=O)NC2=O)cc1)c1ccccn1 (stereo not shown) [Compound A]" observed="~80 µg/mL"
